tested on: human leukemia MV4-11 cell line; experiment: Antiproliferative assay in vitro, MTT, MV4-11; assay type: cell-based; conditions: 72 h exposure, mean ± SD
So basically: is IC50 under 100 nM? Then condition met. Not under? Then condition not met.

- compound: "N.N.[Cl][Pt][Cl] [cisplatin, reference compound]"
  class.name: "condition not met"
- compound: "COC(=O)c1ccc2c(c1)c(NCCCNC(=O)CCC(=O)OC1OC3OC4(C)CCC5C(C)CCC(C1C)C35OO4)c1c3ccccc3nc-1n2C (centres unmarked) [Compound 7d]"
  class.name: "condition not met"
- compound: "CC1CCC2C(C)C(OC(=O)CCC(=O)NCC(C)(C)CNc3c4c5ccccc5nc-4n(C)c4ccc(Br)cc34)OC3OC4(C)CCC1C32OO4 (centres unmarked) [Compound 7c]"
  class.name: "condition not met"
- compound: "COC(=O)c1ccc2c(c1)c(NCC(C)(C)CNC(=O)CCC(=O)OC1OC3OC4(C)CCC5C(C)CCC(C1C)C35OO4)c1c3ccccc3nc-1n2C (centres unmarked) [Compound 7e]"
  class.name: "condition met"
- compound: "CC1CCC2C(C)C(OC(=O)CCC(=O)NCCCNc3c4c5ccccc5nc-4n(C)c4ccccc34)OC3OC4(C)CCC1C32OO4 (centres unmarked) [Compound 7a]"
  class.name: "condition not met"
